Let's go through some recorded Ki values for Acetylcholine-binding protein (Lymnaea stagnalis) together.
Numeric only. Scale: µM

CN(C)CCc1cccnc1    3.16

Acetylcholine-binding protein (Lymnaea stagnalis) assay, molecule O=C(Nc1ccccc1)OCCCc1cccnc1 , recorded Ki = 282

Acetylcholine-binding protein (Lymnaea stagnalis) assay, molecule O=C(Nc1ccc(Br)cc1)N[C@H]1CN2CCC1CC2 , recorded Ki = 5.13

Acetylcholine-binding protein (Lymnaea stagnalis) assay, molecule O[C@@H]1C2CCN(CC2)[C@H]1Cc1cccnc1 , recorded Ki = 0.251

Acetylcholine-binding protein (Lymnaea stagnalis) assay, molecule O=C(N[C@H]1CN2CCC1CC2)c1ccc(Cl)cc1 , recorded Ki = 2.09

Acetylcholine-binding protein (Lymnaea stagnalis) assay, molecule O=C(N[C@@H]1C2CCN(CC2)[C@H]1Cc1cccnc1)Oc1ccccc1 , recorded Ki = 0.501
